target: EPHA4 (human) (UniProt P54764); test: KINOMEscan competition binding; conditions: compound 10.0 µM
Sequence (P54764 whole entry, looked up): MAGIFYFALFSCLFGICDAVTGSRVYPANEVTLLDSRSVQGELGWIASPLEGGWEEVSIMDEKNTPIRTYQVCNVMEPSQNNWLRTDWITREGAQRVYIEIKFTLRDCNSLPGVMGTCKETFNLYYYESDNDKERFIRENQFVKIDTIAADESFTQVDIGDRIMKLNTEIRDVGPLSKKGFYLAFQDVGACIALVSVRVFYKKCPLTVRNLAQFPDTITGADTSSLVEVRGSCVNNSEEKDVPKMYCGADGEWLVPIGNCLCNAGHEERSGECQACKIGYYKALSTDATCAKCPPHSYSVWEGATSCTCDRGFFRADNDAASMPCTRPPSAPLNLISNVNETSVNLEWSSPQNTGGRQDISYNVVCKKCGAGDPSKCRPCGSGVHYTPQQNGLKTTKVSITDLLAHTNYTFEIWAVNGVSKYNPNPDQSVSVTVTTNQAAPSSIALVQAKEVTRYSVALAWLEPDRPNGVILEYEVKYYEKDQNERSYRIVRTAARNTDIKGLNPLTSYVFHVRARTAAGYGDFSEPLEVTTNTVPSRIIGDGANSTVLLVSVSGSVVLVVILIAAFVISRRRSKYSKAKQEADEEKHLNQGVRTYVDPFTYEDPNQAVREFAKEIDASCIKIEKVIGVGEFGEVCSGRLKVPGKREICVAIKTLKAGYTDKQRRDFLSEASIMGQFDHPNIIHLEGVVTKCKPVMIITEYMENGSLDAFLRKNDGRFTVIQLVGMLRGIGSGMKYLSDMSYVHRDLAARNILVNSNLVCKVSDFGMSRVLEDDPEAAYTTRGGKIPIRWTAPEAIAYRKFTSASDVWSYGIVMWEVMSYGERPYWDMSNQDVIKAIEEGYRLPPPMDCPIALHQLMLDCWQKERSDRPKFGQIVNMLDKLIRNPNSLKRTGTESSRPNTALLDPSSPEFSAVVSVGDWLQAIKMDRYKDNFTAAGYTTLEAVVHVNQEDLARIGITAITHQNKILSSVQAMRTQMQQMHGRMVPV
Listed below: kinase still bound, per cent of control values for each entry.
Respond numerically; units are % and should not be typed.

Solved entries (count: 3):
OCCCNc1cc(-c2ccnc(Nc3cccc(Cl)c3)n2)ccn1; 100
O=C(NC1CC1)c1cccc(-c2ccc3c(NC(=O)C4CC4)n[nH]c3c2)c1; 100
C=CC(=O)Nc1cccc(Nc2nc(N[C@H]3CC[C@H](N(C)C)CC3)nc3c2ncn3C(C)C)c1; 64

// moving on: another record for kinase still bound, per cent of control
Entry Cc1ccc(C(=O)Nc2cccc(C(F)(F)F)c2)cc1Nc1cncc(C(N)=O)c1 ; kinase still bound, per cent of control = 6.8

###

molecular target: MAP2K3 (human); assay: KINOMEscan competition binding; details: compound 10.0 µM
Label key: 1 (yes) means kinase still bound, per cent of control under 80%; 0 (no) means kinase still bound, per cent of control of 80% or more.

Would you please look over these solved cases?
O=C1Nc2ccc(I)cc2/C1=C/c1cc(Br)c(O)c(Br)c1; 1 (yes)
Nc1ccc(-c2ccc3ncc4ccc(=O)n(-c5cccc(C(F)(F)F)c5)c4c3c2)cn1; 1 (yes)
O=C(NOC[C@H](O)CO)c1ccc(F)c(F)c1Nc1ccc(I)cc1F; 0 (no)

Given Cc1ccc(C(=O)Nc2cccc(C(F)(F)F)c2)cc1Nc1cncc(C(N)=O)c1 , is recorded kinase still bound, per cent of control strictly lower than 80%?
0 (no)

Given C=CC(=O)Nc1cc(NC(=O)c2ccc(C)c(NC(=O)c3ccno3)c2)cc(C(F)(F)F)c1 , is recorded kinase still bound, per cent of control strictly lower than 80%?
0 (no)

Given Cn1c(=O)n(-c2ccc(C(C)(C)C#N)cc2)c2c3cc(-c4cnc5ccccc5c4)ccc3ncc21 , is recorded kinase still bound, per cent of control strictly lower than 80%?
0 (no)

Given CN(C)C/C=C/C(=O)Nc1cccc(Nc2ncc3c(n2)N(C)c2ccccc2C(=O)N3C)c1 , is recorded kinase still bound, per cent of control strictly lower than 80%?
0 (no)

###

target: CDK17 (human); experiment: KINOMEscan competition binding; conditions: compound 10.0 µM
measured.attribute: kinase still bound, per cent of control (%)
Respond numerically; units are % and should not be typed.

Solved entries (count: 5):
C[C@@H](Oc1cc(-n2cnc3ccc(CN4CCN(C)CC4)cc32)sc1C(N)=O)c1ccccc1C(F)(F)F; 90
OCCCNc1cc(-c2ccnc(Nc3cccc(Cl)c3)n2)ccn1; 100
Cc1ccc(C(=O)Nc2cccc(C(F)(F)F)c2)cc1Nc1cncc(C(N)=O)c1; 100
C=CC(=O)Nc1cc(NC(=O)c2ccc(C)c(NC(=O)c3ccno3)c2)cc(C(F)(F)F)c1; 92
CN(C)C/C=C/C(=O)Nc1cccc(Nc2ncc3c(n2)N(C)c2ccccc2C(=O)N3C)c1; 80

Entry C=CC(=O)Nc1cccc(Nc2nc(N[C@H]3CC[C@H](N(C)C)CC3)nc3c2ncn3C(C)C)c1 ; kinase still bound, per cent of control = 100

Entry Nc1ccc(-c2ccc3ncc4ccc(=O)n(-c5cccc(C(F)(F)F)c5)c4c3c2)cn1 ; kinase still bound, per cent of control = 98

Entry CCCS(=O)(=O)Nc1ccc(F)c(C(=O)c2c[nH]c3ncc(-c4ccc(Cl)cc4)cc23)c1F ; kinase still bound, per cent of control = 86

Entry Cc1ccc2nc(NCCN)c3ncc(C)n3c2c1 ; kinase still bound, per cent of control = 92

Entry CCOc1cc2ncc(C#N)c(Nc3ccc(OCc4ccccn4)c(Cl)c3)c2cc1NC(=O)/C=C/CN(C)C ; kinase still bound, per cent of control = 100

Entry Cc1ccc(NC(=O)c2cccc(C(C)(C)C#N)c2)cc1Nc1ccc2ncn(C)c(=O)c2c1 ; kinase still bound, per cent of control = 100

Entry CCN1CCN(Cc2ccc(Nc3ncc4c(n3)N(C)c3ccccc3C(=O)N4C)cc2C(F)(F)F)CC1 ; kinase still bound, per cent of control = 88

Entry O=C(NC1CC1)c1cccc(-c2ccc3c(NC(=O)C4CC4)n[nH]c3c2)c1 ; kinase still bound, per cent of control = 37

Entry Cc1cc([C@@H](C)Nc2ccccc2C(=O)O)c2nc(N3CCOCC3)cc(=O)n2c1 ; kinase still bound, per cent of control = 100

Entry O=C(NOC[C@H](O)CO)c1ccc(F)c(F)c1Nc1ccc(I)cc1F ; kinase still bound, per cent of control = 95
